# ASSAY_SUMMARY: Mitotoxicity / Mitotox safety margin (therapeutic window)
# Type: cell-based
# CONDITIONS: mitotox or cytotox
MEASURED_QUANTITY: Highest safe dose (μM) (mitotox or cytotox) (µM)
Write down the numeric answer in µM and omit the unit.

Worked cases, Highest safe dose (μM) (mitotox or cytotox) given:
# MOLECULE, REPORTED
records = [
    ("Fc1ccc2c(c1)CC[C@@H](N1C[C@H]3COC[C@H]3C1)[C@@H]2Nc1ncnc2[nH]c(C(F)(F)F)cc12 (single isomer, unassigned)", 8.3),
    ("C[C@H]1CN([C@@H]2COc3ccccc3[C@H]2Nc2ncnc3[nH]c(C(F)(F)F)cc23)CCO1", 19.4),
    ("COC[C@H]1CCN([C@H]2COc3ccccc3[C@@H]2Nc2ncnc3[nH]c(C4CC4)cc23)C1", 3.6),
    ("C[C@@H]1CN([C@H]2COc3ccccc3[C@@H]2Nc2ncnc3[nH]c(C4CC4)cc23)C[C@H](C)O1 [EP-0040944]", 25.0),
    ("COC[C@H]1CCN([C@H]2COc3ccccc3[C@@H]2Nc2ncnc3[nH]c(C(F)(F)F)cc23)C1 (single isomer, unassigned)", 4.5),
    ("C[C@H]1CN([C@H]2CCc3ccccc3[C@@H]2Nc2ncnc3[nH]c(C4CC4)cc23)CCO1 (single isomer, unassigned)", 3.5),
]

# ---- query molecule ----
Asked: What does the data say about its Highest safe dose (μM) (mitotox or cytotox)? Entry: COC1CN([C@H]2COc3ccccc3[C@@H]2Nc2ncnc3[nH]c(C(F)(F)F)cc23)C1 [EP-0040849]
Given back: 25.0
